Biological target: RORα LBD (Homo sapiens (Human))
Sequence (P35398 272-510): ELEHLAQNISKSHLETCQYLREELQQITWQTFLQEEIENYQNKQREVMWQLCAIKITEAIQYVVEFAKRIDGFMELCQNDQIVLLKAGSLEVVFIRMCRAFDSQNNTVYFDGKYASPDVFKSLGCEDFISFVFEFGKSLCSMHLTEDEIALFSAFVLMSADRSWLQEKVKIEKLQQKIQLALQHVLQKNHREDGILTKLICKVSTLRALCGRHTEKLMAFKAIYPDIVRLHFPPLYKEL
Assay: TR-FRET co-activator D22 interaction with RORα LBD
Assay type: biochemical
Details: 20 hr; read-out: RORα EC50 D22 co-activator displacement 20 hr
Experimental: The Time-Resolved Fluorescence Resonance Energy Transfer (TR-FRET) assay kit (Life Technologies) was used to measure compound efficacy to disrupt or enhance ligand-mediated interaction of the co-activator and co-repressor peptides with the purified GST-tagged (i) RORγ LBD or (ii) RORγ LBD. […] The assay was performed as per manufacturer's instructions and TR-FRET was assessed 2 and 20 hours post-assay initiation. […]
pEC50: −log10 of the molar value.
This listing pairs molecules with measured pEC50.
READOUT TYPE: pEC50

{"columns": ["SMILES TEXT", "MEASURED VALUE"],
 "data": [
  ["CS(=O)(=O)Nc1ccc2c(c1)CCC(=O)N2Cc1ccc(C(O)(C(F)(F)F)C(F)(F)F)cc1", "> 4.52"],
  ["CC(=O)Nc1ccc2c(ccn2Cc2ccc(C(O)(C(F)(F)F)C(F)(F)F)cc2)c1", "< 4.52"],
  ["CC(=O)Nc1ccc2c(c1)CCN2Cc1ccc(C(F)(F)F)cc1", "< 4.52"],
  ["CC(=O)Nc1ccc2c(c1)CCN2Cc1ccc(C(=O)Nc2ccccc2)cc1", "< 4.52"],
  ["CC(=O)Nc1ccc2c(c1)CCN2Cc1ccc(C(=O)N(C)C)cc1", "< 4.52"]
]}
